Provide the recorded melting point for the entries that follow.

Illustrative cases are given below, each with its answer.
COc1ccc(C=C2N=C(c3ccccc3)OC2=O)cc1OC
132 to 133 °C
Cc1ccc(-n2ncc(Cl)c(Cl)c2=O)cc1
144 to 146 °C

Next molecule, please.
Could you share which melting point value was measured for O=CC(C=O)c1ccccc1[N+](=O)[O-] ? 118 to 123 °C

---

Readout name: melting point

COC(=O)c1ccc2c(C=O)cn(C(=O)OC(C)(C)C)c2c1
214 to 215 °C

Please go through the list and note melting point for each compound.
1. O=[N+]([O-])c1cccc2nsnc12
2. O=C(O)c1ccc(-n2ccnc2)cc1
3. CC(=O)/C(=N\Nc1cccc(C(F)(F)F)c1)C(=O)C(F)(F)F
4. Cc1nccn1-c1ccc(N)cc1
5. CC(C)CC(C)(N)P(=O)(O)O (stereo not given)
6. O=C1c2ccccc2C(=O)N1c1cn[nH]c1
7. Cc1ccccc1N1C(=O)C2ON=C(C(=O)c3ccco3)C2C1=O (stereo not given)

1: 106 to 110 °C; 2: 309 to 311 °C; 3: 85 to 87 °C; 4: 112 to 113 °C; 5: 234 to 238 °C; 6: 259 to 260 °C; 7: 203 to 204 °C

Please go through the list and note melting point for each compound.
1. NC(=O)c1c(Cl)cc(C(F)(F)F)cc1Cl
2. Brc1nc(Br)n(Cc2ccccc2)n1
3. CCN(CC)c1ccc(N=Nc2ccccc2)cc1
4. Cc1ccc(C(c2ccc(C)cc2)(C(F)(F)F)C(F)(F)F)cc1

1. 166 to 169 °C
2. 60 to 65 °C
3. 97.5 °C
4. 82 to 83 °C

Please go through the list and note melting point for each compound.
1. O=c1c(Cl)c(Cl)cnn1-c1ccc(C(F)(F)F)cc1
2. Cc1ccc2c(c1)C1C(C3C2C2(Cl)C(Cl)=C(Cl)C3(Cl)C2(Cl)Cl)C2(Cl)C(Cl)=C(Cl)C1(Cl)C2(Cl)Cl (stereo not given)
3. COC(=O)c1ccc(NC(C)C)c(N)c1

1. 139 to 140 °C
2. 160 to 165 °C
3. 104 to 106 °C
